These measurements were taken from patent US12077503B2.

- Tested on: corn (Zea mays)
- test.description: Test G Post-Emergence Protocol
- Type: in vivo
- particulars: Zea mays, post-emergence, 312 h, 62.5 g ai/ha, evaluated after 13 days, read-out: Corn damage rating (100=total damage to plant; 0=no damage to plant)
property.name: plant injury at 62.5 g/ha (%)
Numbers only; they are read as %.

Known results for compounds:
- COc1cccc(NC(=O)[C@H]2C(=O)N(C)C[C@@H]2c2ccc(C(F)(F)F)cc2)c1C (racemic) [Compound 1446]: 0
- CN1C[C@@H](c2ccc(C(F)(F)F)cc2)[C@H](C(=O)Nc2nnc(C(F)(F)F)[nH]2)C1=O (racemic) [Compound 1550]: 10
- CN1C[C@@H](c2ccc(C(F)(F)F)cc2)[C@H](C(=O)Nc2cccc(F)c2)C1=O (racemic) [Compound 1623]: 0

Here is the next item to consider.
API: value(readout= plant injury at 62.5 g/ha, system= corn (Zea mays), query= CN1C[C@@H](c2ccc(C(F)(F)F)cc2)[C@H](C(=O)Nc2ccc(C#N)cc2Cl)C1=O (racemic) [Compound 1620] ) 0

###

- Test system: corn (Zea mays)
- test.description: Test G Post-Emergence Protocol
- Type: in vivo
- particulars: Zea mays, post-emergence, 312 h, 250 g ai/ha, evaluated after 13 days, read-out: damage to plant, Corn (100=total damage to plant; 0=no damage to plant)
property.name: plant injury at 250 g/ha (%)
# value in %; strip the unit string

- CN1C[C@@H](c2ccc(C(F)(F)F)nc2)[C@H](C(=O)Nc2ccccc2S(C)(=O)=O)C1=O (racemic) [Compound 1586]: 30
- CN1C[C@@H](c2ccc(C(F)(F)F)cc2)[C@H](C(=O)Nc2nnc(C(F)(F)F)o2)C1=O (racemic) [Compound 1604]: 0
- CN1C[C@@H](c2ccc(C(F)(F)F)cc2)[C@H](C(=O)Nc2ncnn2C)C1=O (racemic) [Compound 1643]: 0
- COC(=O)c1nccc(NC(=O)[C@@H]2C(=O)N(C)C[C@H]2c2ccc(C(F)(F)F)cc2)n1 (racemic) [Compound 1537]: 0

State the recorded plant injury at 250 g/ha for this entry: CN1C[C@@H](c2ccc(C(F)(F)F)cc2)[C@H](C(=O)Nc2cn(C)nn2)C1=O (racemic) [Compound 1527] 10

// lookup plant injury at 250 g/ha for CN1C[C@@H](c2ccc(C(F)(F)F)cc2)[C@H](C(=O)Nc2cnn(C)n2)C1=O (racemic) [Compound 1531] 10

Entry CN1C[C@@H](c2ccc(C(F)(F)F)cc2)[C@H](C(=O)Nc2nccc(C(F)(F)F)n2)C1=O (racemic) [Compound 1547] : reported plant injury at 250 g/ha = ? 0

###

- Test system: giant foxtail (Setaria faberii)
- test.description: Test A postemergence
- Format: in vivo
- particulars: 125 g ai/ha, postemergence; visual injury rating on 0 to 100 scale (0 no effect, 100 complete control), approx. 10 d
- Excerpt: […]
property.name: Foxtail, Giant plant response rating
In your answer, state the number alone without any accompanying words.

- COCc1cccc(C2CNC(=O)C2C(=O)Nc2cccc(F)c2F)c1 (centres unmarked): 20
- CN1CC(c2ccc(Cl)cc2)C(C(=O)Nc2cccc(F)c2F)C1=O (centres unmarked): 90
- CS(=O)(=O)c1ccccc1NC(=O)C1C(=O)NCC1c1ccc(C2CC2)cc1 (racemic): 20
- COc1ccc(NC(=O)C2C(=O)NCC2c2ccc(F)c(F)c2)c(F)c1 (centres unmarked): 0
- O=C1NCC(c2cc(Br)cs2)C1C(=O)Nc1cccc(F)c1F (racemic): 10
- O=C1NCC(c2cccc(OCC(F)F)c2)C1C(=O)Nc1cccc(F)c1F (centres unmarked): 60
- CN1CC(c2cccc(OC(F)F)c2)C(C(=O)Nc2ccccc2S(C)(=O)=O)C1=O (centres unmarked): 80

--- query ---
Item CCc1ccc(C2CNC(=O)C2C(=O)Nc2ccccc2F)cc1 (centres unmarked) has what recorded Foxtail, Giant plant response rating? 20
